system: cucumber downy mildew; experiment: Activity in vivo for inhibiting cucumber downy mildew (potting method, greenhouse); conditions: 0.078 mg/L; re-screening, Table 2
ENDPOINT_NAME: Control effect

1. Cc1cc(C(F)(F)F)nn1CC(=O)N1CCC(c2nc(C3=NOC(c4c(F)cccc4F)C3)cs2)CC1 (stereo not shown) [OXA, oxathiapiprolin, reference compound]; A (90%≤A≤100%)
2. CO/N=C/C(=O)N1CCC(c2nc(C3=NOC(c4c(F)cccc4F)C3)cs2)CC1 (stereo not shown) [Compound I-22]; B (75%≤B<90%)
3. CCOC(CC(=O)N1CCC(c2nc(C3=NOC(c4c(F)cccc4F)C3)cs2)CC1)OCC (stereo not shown) [II-2]; B (75%≤B<90%)
4. CO/N=C(/C(=O)N1CCC(c2nc(C3=NOC(c4c(F)cccc4F)C3)cs2)CC1)c1ccccc1C (stereo not shown) [Compound I-19]; B (75%≤B<90%)

Form: compound = CCCOC(CC(=O)N1CCC(c2nc(C3=NOC(c4c(F)cccc4F)C3)cs2)CC1)OCC (stereo not shown) [II-4] ; Control effect = A (90%≤A≤100%)

Form: compound = Cc1ccc(-c2c(Cl)nc(C#N)n2S(=O)(=O)N(C)C)cc1 [cyazofamid, reference compound] ; Control effect = B (75%≤B<90%)

Form: compound = COc1ccc(C(=CC(=O)N2CCOCC2)c2ccc(Cl)cc2)cc1OC [dimethomorph, reference compound] ; Control effect = B (75%≤B<90%)

Form: compound = CCOC(CC(=O)N1CCC(c2nc(C3=NOC(c4c(F)cccc4F)C3)cs2)CC1)OCC(F)(F)F (stereo not shown) [II-19] ; Control effect = A (90%≤A≤100%)

Form: compound = CCOC(CC(=O)N1CCC(c2nc(C3=NOC(c4c(F)cccc4F)C3)cs2)CC1)OC (stereo not shown) [II-3] ; Control effect = A (90%≤A≤100%)

Form: compound = COC(CC(=O)N1CCC(c2nc(C3=NOC(c4c(F)cccc4F)C3)cs2)CC1)OCC(F)(F)F (stereo not shown) [II-18] ; Control effect = A (90%≤A≤100%)
